Recorded values, source ChEMBL document CHEMBL1148433.

biological target: Mitogen-activated protein kinase 3 (Homo sapiens)
Sequence (P27361 whole entry): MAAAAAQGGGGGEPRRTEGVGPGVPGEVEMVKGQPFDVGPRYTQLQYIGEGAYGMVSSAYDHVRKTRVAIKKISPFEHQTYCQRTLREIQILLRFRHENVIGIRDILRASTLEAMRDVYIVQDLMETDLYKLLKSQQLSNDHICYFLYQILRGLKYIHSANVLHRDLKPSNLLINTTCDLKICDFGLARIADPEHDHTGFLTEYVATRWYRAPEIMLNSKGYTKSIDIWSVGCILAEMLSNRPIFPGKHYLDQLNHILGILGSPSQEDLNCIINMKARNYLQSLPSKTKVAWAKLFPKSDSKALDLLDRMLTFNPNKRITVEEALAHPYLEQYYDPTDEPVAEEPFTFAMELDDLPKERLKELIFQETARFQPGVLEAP
pIC50: −log10 of the molar value.
ENDPOINT: pIC50

Note down pIC50 recorded for Nc1nccc(-c2c[nH]c3c(Br)ccc(O)c23)n1 [MERIDIANIN E] < 4.00

###

tested on: U-937; assay: cells; assay type: functional, cell-based; details: Homo sapiens
ENDPOINT: pIC50
Numbers only, as −log10 of the molar value.

Use these answered entries as a reference point.
{"SAMPLE_SMILES": "Nc1nccc(-c2c[nH]c3cc(Br)c(Br)cc23)n1", "pIC50": 6.70}
{"SAMPLE_SMILES": "Nc1nccc(-c2c[nH]c3cc(Br)cc(O)c23)n1", "pIC50": 4.94}

// moving on: another record for pIC50
Under U-937, report pIC50 for Nc1nccc(-c2c[nH]c3cc(Br)ccc23)n1 4.77
